- Species: Cavia porcellus
- assay remarks: Compound was tested for calcium channel agonistic activity, causing a 50% increase of the maximum contractile response on guinea pig left atrium.
- Type: functional, Cardiac atrium
pEC50: −log10 of the molar value.
recorded metric: pEC50

1: CC1=NC(C)=C([N+](=O)[O-])C(c2ccccn2)/C1=C(\O)OC1CCCCC1 (stereo in doubt; 14a)
2: CC1=NC(C)=C([N+](=O)[O-])C(c2ccccn2)/C1=C(\O)OC1CCCCC1 (single isomer, unassigned; (+))
Q. Thinking about recorded pEC50 values, which is higher, 1 or 2 ? Refer to your chosen entry by its label in the reply.
A. 1

---

- Species: Cavia porcellus
- assay remarks: Inhibition of carbachol-induced tonic contractile response in guinea pig ileal longitudinal smooth muscle
- Type: functional
recorded metric: IC50 (nM)

P: CC1=NC(C)=C([N+](=O)[O-])C(c2ccccn2)/C1=C(\O)OC1CCCCC1 (stereo in doubt; 14a)
Q: CC1=NC(C)=C([N+](=O)[O-])C(c2ccccn2)/C1=C(\O)OC1CCCCC1 (single isomer, unassigned; (-))
R: CC1=NC(C)=C([N+](=O)[O-])C(c2ccccn2)/C1=C(\O)OC1CCCCC1 (single isomer, unassigned; (+))
Q. Using measured IC50, arrange the compounds from above in descending sequence. List labels; respect the requested ordering.
A. R, P, Q
